Sourced from paper PMC11500612

Here, each record is paired with measured pIC50 data.
- tested.on: GuaB^Sa (Staphylococcus aureus)
- Sequence (Q2FJM6 whole entry): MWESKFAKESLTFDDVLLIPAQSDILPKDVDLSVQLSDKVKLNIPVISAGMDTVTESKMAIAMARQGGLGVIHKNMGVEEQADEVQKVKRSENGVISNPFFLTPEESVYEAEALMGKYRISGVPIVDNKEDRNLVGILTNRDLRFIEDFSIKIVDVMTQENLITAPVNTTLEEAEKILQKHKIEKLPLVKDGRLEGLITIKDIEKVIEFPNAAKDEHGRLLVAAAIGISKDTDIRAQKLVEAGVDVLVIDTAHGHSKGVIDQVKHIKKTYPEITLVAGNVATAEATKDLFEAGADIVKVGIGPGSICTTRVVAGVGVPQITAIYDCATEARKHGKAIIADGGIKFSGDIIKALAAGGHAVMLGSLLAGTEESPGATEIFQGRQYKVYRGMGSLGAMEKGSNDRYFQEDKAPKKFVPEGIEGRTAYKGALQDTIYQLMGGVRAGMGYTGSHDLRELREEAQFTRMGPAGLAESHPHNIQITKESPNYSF
- assay.procedure: NADH production, NAD(P)H-Glo luminescence
By convention, pIC50 is the negative base-10 log of a molar concentration.

Worked set:
Recorded result, C[C@H](Nc1ccc2ncc(CO)cc2c1)C(=O)Nc1ccc(Cl)c(N(C)C)c1 [G2] , pIC50: 8.46

Looking up C[C@H](Nc1ccc(-n2cncn2)cc1)C(=O)Nc1ccc2sc(-c3cc[n+]([O-])cc3)nc2c1 [G4] , I found its pIC50 recorded as 9.21

The value of pIC50 measured for the compound C[C@H](Nc1ccc2ncc(CO)cc2c1)C(=O)Nc1ccc(Br)nc1 [G3] turned out to be 8.61

Please fill in: pIC50 reported for C[C@H](Nc1ccc2ncc(CO)cc2c1)C(=O)Nc1ccc(Cl)c(N2CCOCC2)c1 [G6] = 9.10

# ---- query compound ----
// field: pIC50; key: C[C@H](Nc1ccc(-n2cccn2)cc1)C(=O)Nc1ccc2sc(-c3ccncc3)nc2c1 [G5] ; value = 9.29

* * *

Below: a set of entries, each annotated with reported IC50.
- tested.on: GuaB^Ec (Escherichia coli, UniProt P0ADG7)
- Sequence (P0ADG7 whole entry): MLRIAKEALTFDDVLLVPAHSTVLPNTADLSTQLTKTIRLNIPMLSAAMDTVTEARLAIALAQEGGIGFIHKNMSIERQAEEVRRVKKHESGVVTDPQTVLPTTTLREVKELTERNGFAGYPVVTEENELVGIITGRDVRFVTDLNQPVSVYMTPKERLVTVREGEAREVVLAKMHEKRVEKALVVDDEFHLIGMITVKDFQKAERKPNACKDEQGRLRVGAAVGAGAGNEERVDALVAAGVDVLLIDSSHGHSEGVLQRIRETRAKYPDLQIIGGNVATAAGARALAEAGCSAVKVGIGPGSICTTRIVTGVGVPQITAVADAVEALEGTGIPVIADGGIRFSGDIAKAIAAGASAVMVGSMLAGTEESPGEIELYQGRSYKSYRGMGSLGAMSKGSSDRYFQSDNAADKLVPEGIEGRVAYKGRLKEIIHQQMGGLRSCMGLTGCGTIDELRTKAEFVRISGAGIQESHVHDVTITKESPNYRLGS
- assay.procedure: NADH production, absorbance at […] nm
Give the value in nM but do not write nM after it.

Use these answered entries as a reference point.
Measured IC50 of C[C@H](Nc1ccc2ncc(CO)cc2c1)C(=O)Nc1ccc(Cl)c(N(C)C)c1 [G2] : 15.8

For this compound ( C[C@H](Nc1ccc(-n2cccn2)cc1)C(=O)Nc1ccc2sc(-c3ccncc3)nc2c1 [G5] ), measured IC50 is 569

The measured IC50 associated with C[C@H](Nc1ccc2ncc(CO)cc2c1)C(=O)Nc1ccc(Cl)c(N2CCOCC2)c1 [G6] reads 5.9

GET /value?item= C[C@H](Nc1ccc(-n2cncn2)cc1)C(=O)Nc1ccc2sc(-c3cc[n+]([O-])cc3)nc2c1 [G4] &field=IC50 returns 903

Others:
Sure, the documented IC50 for C[C@H](Nc1ccc2ncc(CO)cc2c1)C(=O)Nc1ccc(Br)nc1 [G3] is 91

* * *

Overview of recorded IC50 for various compounds
- tested.on: GuaB^Ab (Acinetobacter baumannii, UniProt D0CF46)
- Construct: recombinant A. baumannii GuaB
- Sequence (D0CF46 1-488): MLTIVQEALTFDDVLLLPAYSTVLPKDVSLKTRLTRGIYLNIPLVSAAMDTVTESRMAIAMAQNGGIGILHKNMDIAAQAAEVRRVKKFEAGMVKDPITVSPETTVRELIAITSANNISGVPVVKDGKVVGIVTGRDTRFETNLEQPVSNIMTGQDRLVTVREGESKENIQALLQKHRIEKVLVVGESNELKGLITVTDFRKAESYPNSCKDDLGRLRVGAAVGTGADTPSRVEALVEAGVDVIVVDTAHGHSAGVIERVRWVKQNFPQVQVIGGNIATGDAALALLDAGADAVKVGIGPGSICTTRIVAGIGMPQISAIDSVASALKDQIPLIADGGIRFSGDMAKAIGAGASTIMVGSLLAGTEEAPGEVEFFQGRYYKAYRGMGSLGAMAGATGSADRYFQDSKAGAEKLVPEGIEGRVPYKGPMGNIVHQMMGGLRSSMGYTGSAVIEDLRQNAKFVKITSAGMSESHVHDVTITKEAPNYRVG
- assay.procedure: NADH production, NAD(P)H-Glo luminescence
- From the text: NADH production, NAD(P)H-Glo luminescence on GuaB^Ab
The number alone won't do; follow it with the unit.

Use the examples below as a reference point.
// IC50 value for C[C@H](Nc1ccc2ncc(CO)cc2c1)C(=O)Nc1ccc(Br)nc1 [G3] : 0.975 nM

The compound listed as C[C@H](Nc1ccc(-n2cccn2)cc1)C(=O)Nc1ccc2sc(-c3ccncc3)nc2c1 [G5] has a reported IC50 of 0.394 nM

Kindly note the recorded IC50 for C[C@H](Nc1ccc2ncc(CO)cc2c1)C(=O)Nc1ccc(Cl)c(N(C)C)c1 [G2] , which is 0.666 nM

Reported IC50 for C[C@H](Nc1ccc(-n2cncn2)cc1)C(=O)Nc1ccc2sc(-c3cc[n+]([O-])cc3)nc2c1 [G4] was 0.617 nM

Please look at the following compound next.
Input C[C@H](Nc1ccc2ncc(CO)cc2c1)C(=O)Nc1ccc(Cl)c(N2CCOCC2)c1 [G6] . Output IC50: 0.564 nM
